# melting point per record follows

{"columns": ["Compound", "melting point"],
 "data": [
  ["COc1c(/C=C/c2ccc(NS(C)(=O)=O)cc2CO)cc(-c2ccc[nH]c2=O)cc1C(C)(C)C", "140 to 142 °C"],
  ["COc1ccc(-c2ccc[nH]c2=O)cc1C(C)(C)OC", "154 to 155 °C"],
  ["CC(=O)Nc1ccc(CCc2cc(-c3ccc[nH]c3=O)cc(C(C)(C)C)c2)cc1", "218 to 220 °C"],
  ["CC(=O)Nc1c(CCc2ccc(NS(C)(=O)=O)cc2)cc(C(C)(C)C)cc1-c1ccc[nH]c1=O", "180 to 182 °C"],
  ["COc1c(CCc2ccc(NS(C)(=O)=O)c(C)c2)cc(-c2ccc[nH]c2=O)cc1C(C)(C)C", "114 to 116 °C"],
  ["CC(C)(CO)c1cc(CCc2ccc(NS(C)(=O)=O)cc2)c(O)c(-c2ccc[nH]c2=O)c1", "118 to 120 °C"],
  ["COc1c(/C=C/c2ccc(NS(C)(=O)=O)cc2C#N)cc(-c2ccc[nH]c2=O)cc1C(C)(C)C", "266 to 268 °C"],
  ["CC(C)(C)c1cc(Cl)c(O)c(-c2ccc[nH]c2=O)c1", "211.4 to 213.5 °C"],
  ["COc1c(C(=O)NC2CC2)cc(-c2ccc[nH]c2=O)cc1C(C)(C)C", "223 to 224 °C"],
  ["COc1c(CC(CN)c2ccc(NS(C)(=O)=O)cc2)cc(-c2ccc[nH]c2=O)cc1C(C)(C)C (stereo not drawn)", "158 to 160 °C"],
  ["COc1c(NC(=O)c2ccc(NS(C)(=O)=O)cc2)cc(-c2ccc[nH]c2=O)cc1C1(C)CC1", "254 to 256 °C"],
  ["CCOc1cc(NS(C)(=O)=O)ccc1C(=O)Nc1cc(-c2ccc[nH]c2=O)cc(C(C)(C)C)c1OC", "290 to 292 °C"],
  ["COc1c(C(=O)c2ccnc(N)c2)cc(-c2ccc[nH]c2=O)cc1C(C)(C)C", "140 to 145 °C"],
  ["CC(C)(C)c1ccc(O)c(-c2ccc[nH]c2=O)c1", "211 to 212 °C"],
  ["COc1c(/C=C/c2ccc(NS(C)(=O)=O)cc2C(=O)O)cc(-c2ccc[nH]c2=O)cc1C(C)(C)C", "260 to 262 °C"],
  ["COc1c(CCc2ccc(NS(C)(=O)=O)cc2C)cc(-c2ccc[nH]c2=O)cc1C(C)(C)C", "240 to 242 °C"],
  ["COc1c(CCc2ccc(NS(C)(=O)=O)cc2F)cc(-c2ccc[nH]c2=O)cc1C(C)(C)C", "120 to 122 °C"],
  ["CCC(C)(C)c1cc(Br)c(O)c(-c2ccc[nH]c2=O)c1", "257.2 to 257.7 °C"]
]}
